Here, each record is paired with measured viability, T/C data.
- Test system: 521955-158-R2-J5-PDC complex spheroid growth, % test/control;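 note: spheroids exposed to agents for 7 days before readout; 100% = DMSO vehicle control viability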
- test.summary: Anticancer human tumor 521955-158-R2-J5-PDC patient-derived pancreatic carcinoma cell line growth inhibition [Asc]
- applied.conditions: second compound 0.316 µM; first compound 0.316 µM; active compounds read low
Expressed in %, but write only the number.

Consider the worked cases shown below.
molecule	reported.property	meas.value
C=CC(=O)N1CCN(c2nc(=O)n(-c3c(C)ccnc3C(C)C)c3nc(-c4c(O)cccc4F)c(F)cc23)C(C)C1 (stereo not drawn) + CNC(C)C(=O)NC1CN(S(=O)(=O)c2cccc(S(=O)(=O)N3CCC4CCC(C(=O)NC(c5ccccc5)c5ccccc5)N4C(=O)C(NC(=O)C(C)NC)C3)c2)CCC2CCC(C(=O)NC(c3ccccc3)c3ccccc3)N2C1=O	viability, T/C	97.3
CCN1CCN(Cc2ccc(Nc3ncc(F)c(-c4cc(F)c5nc(C)n(C(C)C)c5c4)n3)nc2)CC1 + Cc1c(S(C)(=O)=O)c(-c2cc(F)cc(N3CCN(c4ccc(NS(=O)(=O)c5ccc(NC(CCN6CCC(C(=O)OCCCP(=O)(O)O)CC6)CSc6ccccc6)c(S(=O)(=O)C(F)(F)F)c5)cc4)CC3)c2)c(-c2ccc(Cl)cc2)n1C(C)C	viability, T/C	77.7

Next up:
Exercise: For the molecule shown here, O=C(c1ccc(F)c(F)c1Nc1ccc(I)cc1F)N1CC(O)([C@@H]2CCCCN2)C1 + CNC(C)C(=O)NC1CN(S(=O)(=O)c2cccc(S(=O)(=O)N3CCC4CCC(C(=O)NC(c5ccccc5)c5ccccc5)N4C(=O)C(NC(=O)C(C)NC)C3)c2)CCC2CCC(C(=O)NC(c3ccccc3)c3ccccc3)N2C1=O , give the reported viability, T/C.
Solution: 18.9
